Source listed as patent US8273788B2.

Entries and their N-acetyl-β-hexosaminidse Inhibition (%) values follow.
# Tested on: N-acetyl-β-hexosaminidase
# MEASUREMENT DESCRIPTION: N-acetyl-β-hexosaminidase inhibition assay (in situ screen, IC50, Ki)
# Assay type: biochemical, jack bean
# CONDITION PARAMETERS: reaction product at 30 μM, in situ screening
ASSAY READOUT: N-acetyl-β-hexosaminidse Inhibition (%)

• CCCCC(CC)C(=O)NC[C@H]1N[C@H](CO)[C@@H](O)[C@@H]1O (some centres unmarked) [Compound 7] = 20%
• O=C(NC[C@H]1N[C@H](CO)[C@@H](O)[C@@H]1O)c1ccc2[nH]ccc2c1 [Compound 19] = 14%
• O=C(CCc1c[nH]c2ccccc12)NC[C@H]1N[C@H](CO)[C@@H](O)[C@@H]1O [Compound 21] = 27%
• O=C(/C=C/c1cccc(C(F)(F)F)c1)NC[C@H]1N[C@H](CO)[C@@H](O)[C@@H]1O [Compound 12] = 8%
• O=C(Cc1ccc2ccccc2c1)NC[C@H]1N[C@H](CO)[C@@H](O)[C@@H]1O [Compound 16] = 10%
• Cc1ccc(/C=C/C(=O)NC[C@H]2N[C@H](CO)[C@@H](O)[C@@H]2O)cc1 [Compound 27] = 6%
• O=C(NC[C@H]1N[C@H](CO)[C@@H](O)[C@@H]1O)c1ccc2ccccc2c1 [Compound 15] = 31%
• COC(=O)c1ccc2[nH]c(C(=O)NC[C@H]3N[C@H](CO)[C@@H](O)[C@@H]3O)cc2c1 [Compound 18] = 23%

====

# TESTED TARGET: α-glucosidase (Saccharomyces cerevisiae, UniProt P53341)
# Construct: purchased Sigma Co. (St. Louis, Mo.); host or cells: baker's yeast
# Sequence (P53341 whole entry): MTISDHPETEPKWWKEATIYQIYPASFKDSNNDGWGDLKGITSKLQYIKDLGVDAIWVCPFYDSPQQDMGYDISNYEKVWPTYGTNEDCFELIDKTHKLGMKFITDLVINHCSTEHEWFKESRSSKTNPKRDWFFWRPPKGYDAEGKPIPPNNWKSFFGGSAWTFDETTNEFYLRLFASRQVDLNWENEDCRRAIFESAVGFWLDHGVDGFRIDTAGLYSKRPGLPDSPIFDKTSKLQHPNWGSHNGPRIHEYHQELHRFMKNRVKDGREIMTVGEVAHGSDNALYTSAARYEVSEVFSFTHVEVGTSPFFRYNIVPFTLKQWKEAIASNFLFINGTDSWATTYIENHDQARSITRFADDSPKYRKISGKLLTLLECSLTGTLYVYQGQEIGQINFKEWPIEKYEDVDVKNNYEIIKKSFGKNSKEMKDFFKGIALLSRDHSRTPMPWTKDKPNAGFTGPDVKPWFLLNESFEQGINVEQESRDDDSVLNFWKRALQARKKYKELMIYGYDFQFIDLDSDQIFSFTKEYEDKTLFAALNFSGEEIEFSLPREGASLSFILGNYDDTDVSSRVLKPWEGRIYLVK
# MEASUREMENT DESCRIPTION: α-glucosidase inhibition assay (in situ screen, IC50, Ki)
# Type: biochemical, baker's yeast
# CONDITION PARAMETERS: reaction product at 20 μM, in situ screening
ASSAY READOUT: α-glucosidase Inhibition (%)

• O=C(Cc1c[nH]c2ccccc12)NC[C@H]1N[C@H](CO)[C@@H](O)[C@@H]1O = 85
• Cc1ccc(/C=C/C(=O)NC[C@H]2N[C@H](CO)[C@@H](O)[C@@H]2O)cc1 = 26
• O=C(CO)NC[C@H]1N[C@H](CO)[C@@H](O)[C@@H]1O = 10
• COc1ccc(/C=C/C(=O)NC[C@H]2N[C@H](CO)[C@@H](O)[C@@H]2O)cc1OC(C)=O = 27

====

# TESTED TARGET: β-glucosidase
# MEASUREMENT DESCRIPTION: β-glucosidase inhibition assay (in situ screen, IC50, Ki)
# CONDITION PARAMETERS: pure compound
pIC50: −log10 of the molar value.
Entries and their pIC50 values follow.
ASSAY READOUT: pIC50

• O=C(Cc1c[nH]c2ccccc12)NC[C@H]1N[C@H](CO)[C@@H](O)[C@@H]1O [Compound 20] = 3.89
• O=C(NC[C@H]1N[C@H](CO)[C@@H](O)[C@@H]1O)c1cn(Cc2ccccc2)c2ccccc12 [Compound 23] = 4.04
• COc1ccc(/C=C/C(=O)NC[C@H]2N[C@H](CO)[C@@H](O)[C@@H]2O)cc1OC(C)=O [Compound 28] = 5.62
• CN(C)c1ccc(/C=C/C(=O)NC[C@H]2N[C@H](CO)[C@@H](O)[C@@H]2O)cc1 [Compound 29] = 5.49
• O=C(CCc1c[nH]c2ccccc12)NC[C@H]1N[C@H](CO)[C@@H](O)[C@@H]1O [Compound 21] = 4.12
